tested on: MS2 coat protein; assay: apparent KD of MS2 coat protein; designed switch direction (-1 OFF switch, 1 ON switch): -1; higher = weaker reporter binding; settings: input ligand: FMN 200 uM
We'd kindly ask you to apply these apparent KD of MS2 coat protein classes: Low (below 30 nM), Medium (30 nM to below 70 nM), High (70 nM or more)

Problem: Class (by measured apparent KD of MS2 coat protein) for GCUAUGACUGUGAGGAUAUGGACCGGGCUCUCGGAUUAGAAGGCACAUGAGGAUCACCCAUGUGAUCACGUACU [Eternabot (L2) Solution 87] (Eterna round: R97, puzzle: Brourd's mod of Exclusion 4)
Solution: Medium

Problem: Could you tell me which band AGUGACUUAGGAUAUUGGCAUGAAGACAUGAGGAUCACCCAUGUCCUCGUAGUCAUUCGCCGAGAAGGGAGAGAUU [Eternabot (L2) Solution 50] (Eterna round: R97, puzzle: Exclusion 5) belongs to?
Solution: High

Problem: Class (by measured apparent KD of MS2 coat protein) for ACCUGGUGAGGAUAUGUUGGGAAUGAUCCUUUCGGAUUGACACAGAAGGCACAUGAGGAUCACCCAUGUGGGUG [Eternabot (L1) Solution 70] (Eterna round: R97, puzzle: Exclusion 4)
Solution: High

Problem: Assign a category based on measured apparent KD of MS2 coat protein for UACAUGAGGAUCACCCAUGUUUUGUCGUGUAUGGUAUUUAUCUAGGAUAUCAAUUUGUUUAAUUAUGAGAAGGAGAAUAUUAAU [JMF's solution 70] (Eterna round: R96, puzzle: Exclusion NG 3) and give only the class name.
Solution: Medium

Problem: For this sequence, which bin applies? GCGUUCUGAGGAUAUACAUGAGGAUCACCCAUGUUGAGAAUUAUGUAUAAAAGAUUAUGUAGAAGGCAGAGUGC [JR_Ex3_Sub071] (Eterna round: R97, puzzle: Exclusion 3)
Solution: High

Problem: Assign a category based on measured apparent KD of MS2 coat protein for GCUCAGUAAGGAUAUUGUUUAGGAGCUAUAGGCGUAGUUAACAAGAAGGUACAUGAGGAUCACCCAUGUCCAUC [Eternabot (L2) Solution 36] (Eterna round: R97, puzzle: Exclusion 4) and give only the class name.
Solution: Low

Problem: # bin label for AUUGACUGAGGAUAUUGUACUGCUGACAUGAGGAUCACCCAUGUAUGUUAACUCGGCCGUCGAGAAGGCAGAAAUG [BotMod 21 - Jieux - Exclusion 5] (Eterna round: R97, puzzle: Exclusion 5)
Solution: Low

Problem: Which apparent KD of MS2 coat protein band matches UGCAUGUCAGGAUAUCGUGCAUACAACGAAAGUUCUAUGUGCGAGAAGGGACAUGAGGAUCACCCAUGUCUUAG [Omei Ex4 A18] (Eterna round: R97, puzzle: Exclusion 4) ?
Solution: Medium

Problem: For this sequence, which bin applies? CAACACUGAGGAUAUGCUCGGCCGGUUCUCCGUGCCCAAGUACUUGAGGAUCACCCAAGUAGAAGGCAGUAAAA [Diedar] (Eterna round: R97, puzzle: Exclusion 2)
Solution: Low

----------
system: MS2 coat protein; assay: apparent KD of MS2 coat protein, switch OFF state (with FMN for OFF switches, without FMN for ON switches); designed switch direction (-1 OFF switch, 1 ON switch): -1; higher = weaker reporter binding; details: FMN input: 0 or 200 uM; Eterna round: R93 (includes R88 designs)
Mark Not satisfied for apparent KD of MS2 coat protein values under 40 nM, and Satisfied for everything at or above.

Problem: State whether the measured apparent KD of MS2 coat protein reaches 40 nM, counting equality as reaching it, for UCAGGUGGAGGAUAUACAGCUCGAUCCUGGAAUAAAACGGCACAUGAGGAUCACCCAUGUAGAAGGCCACAAAA [Texeussoat]
Solution: Satisfied

Problem: Threshold query (apparent KD of MS2 coat protein >= 40 nM) on AAAAAGGCAGGAUAUACGAAACUAAGACAAAUAAGAAAGGGACAUGAGGAUCACCCAUGUAGAAGGGCCAAAAA [Exclusion 2-01... 60% 4]
Solution: Satisfied

Problem: apparent KD of MS2 coat protein >= 40 nM for AACCAACAUGAGGAUCACCCAUGUCAGGAUAUGCAAAUAACAAACAACAAACAACAAAGCAGAAGGGACAACAA [Mat - Exclusion 1 - Eli mod - D50] ?
Solution: Not satisfied

Problem: Check this sequence for apparent KD of MS2 coat protein at or above 40 nM: AUAAUGUGAGGAUAUACAUGAGGAUCACCCAUGUAAUUAAAAAGGAGAGAAACAAUACGUAGAAGGUACAUUUA [JR_Exc003_Sub510]
Solution: Not satisfied

Problem: Say whether AAUAAUGCAGGAUAUACUAAAGAAAUGAAAAGAAAUAAAGAACAUGAGGAUCACCCAUGUAGAAGGGCAAAUAA [Yakareb] shows apparent KD of MS2 coat protein of 40 nM or more.
Solution: Not satisfied
